- Test system: SK-MEL-2
- experimental details: NCI tumour cell line growth inhibition, 48 h
Active and inactive are the calls of the source. Cut-off read from the data, not from the text of the source: active = GI50 up to about 1.1 µM and inactive = higher.
Let's look at some compounds and their measured GI50.
measured attribute: GI50

>  <compound>
COC(=O)C(=O)Nc1cc2c3c(c1)Oc1cccc4c1C3(C)c1c(cccc1O2)O4

>  <reported result>
> 87.7 µM (inactive)

$$$$
>  <compound>
CC1OCC2OC(C)OC(C3C4=C(CC(C)(C)CC4=O)OC4=C3C(=O)CC(C)(C)C4)C2O1 (stereo not given)

>  <reported result>
> 100 µM (inactive)

$$$$
>  <compound>
O=C(Nc1ccc(S(=O)(=O)Nc2ncccn2)cc1)c1c2ccccc2nc2ccccc12

>  <reported result>
> 100 µM (inactive)

$$$$
>  <compound>
O=C(O)C(Cc1cccs1)NC(=O)C(F)(F)F (stereo not given)

>  <reported result>
> 100 µM (inactive)

$$$$
>  <compound>
CNC(=S)N/N=C(\C)c1nc2cccnc2[nH]1

>  <reported result>
> 63.5 µM (inactive)

$$$$
>  <compound>
C/C(Cl)=N\OC(=O)Nc1ccc(C)cc1

>  <reported result>
18.2 µM (inactive)

$$$$
>  <compound>
N#CC(C(=O)O)C(c1c(Cl)cccc1Cl)C(C#N)C(=O)O (stereo not given)

>  <reported result>
> 100 µM (inactive)

$$$$
>  <compound>
COc1ccc2nc3c([N+](=O)[O-])ccc(NCCN(C)C)c3c(N)c2c1

>  <reported result>
2.37 µM (inactive)

$$$$
>  <compound>
CC1(C)CC(=O)C(=CNc2nc(-c3ccccc3)cs2)C(=O)C1

>  <reported result>
34.7 µM (inactive)

$$$$
>  <compound>
COc1ccc(N2C(=O)C(Cl)C2c2cc3cc(Br)ccc3nc2Cl)cc1 (stereo not given)

>  <reported result>
5.12 µM (inactive)

$$$$

# credit: ChEMBL document CHEMBL1201862
